Taken from patent US10450306B2.

This section presents molecules with their documented EC50 values.
# systemTested: human FXR (NR1H4) (Homo sapiens)
# Sequence (Q96RI1 whole entry, the tested form may be a part): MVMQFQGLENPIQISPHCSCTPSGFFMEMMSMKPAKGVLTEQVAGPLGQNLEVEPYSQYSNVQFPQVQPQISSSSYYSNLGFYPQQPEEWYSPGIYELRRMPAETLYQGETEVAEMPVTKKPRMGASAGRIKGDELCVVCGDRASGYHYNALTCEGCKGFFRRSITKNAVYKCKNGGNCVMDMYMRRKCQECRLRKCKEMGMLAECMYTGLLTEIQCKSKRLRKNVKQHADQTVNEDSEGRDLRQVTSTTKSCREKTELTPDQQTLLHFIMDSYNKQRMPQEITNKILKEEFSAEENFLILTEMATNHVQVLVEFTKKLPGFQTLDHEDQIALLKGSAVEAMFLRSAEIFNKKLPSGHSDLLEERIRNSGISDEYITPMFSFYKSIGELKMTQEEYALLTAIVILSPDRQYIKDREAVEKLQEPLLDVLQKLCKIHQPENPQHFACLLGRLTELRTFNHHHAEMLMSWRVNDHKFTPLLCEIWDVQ
# testName: Human FXR (NR1H4) Assay: Gal4 promoter driven luciferase reporter transactivation in CHO cells (Indigo Bioscience kit IB00601)
# conditionLabel: Human FXR (NR1H4) reporter assay, potency ranges

- molecule: "CC(C)(C)S(=O)(=O)NC(=O)c1ccc2nc(N3C4CCC3CC(NCc3c(-c5c(Cl)cccc5Cl)noc3C3CC3)C4)sc2c1 (stereo not shown)"
  EC50: "< 1 nM"
- molecule: "CC1(S(=O)(=O)NC(=O)c2cc3sc(N4C5CCC4CC(NCc4c(-c6c(Cl)cccc6Cl)noc4C4CC4)C5)nc3cc2-c2ccccc2)CC1 (stereo not shown)"
  EC50: "< 1 nM"
- molecule: "COc1nc2cc(C(=O)NS(=O)(=O)C3(C)CC3)ccc2nc1N1C2CCC1CC(NCc1c(-c3c(Cl)cccc3Cl)noc1C1CC1)C2 (stereo not shown)"
  EC50: "1 to 100 nM"
- molecule: "O=C(O)c1cc(F)c2nc(N3C4CCC3CC(NCc3c(-c5ccccc5OC(F)(F)F)noc3C3CC3)C4)sc2c1 (stereo not shown)"
  EC50: "1 to 100 nM"
- molecule: "O=C(NS(=O)(=O)C1CC1)c1cc(F)c2nc(N3C4CCC3CC(NCc3c(-c5c(Cl)cccc5Cl)noc3C3CC3)C4)sc2c1 (stereo not shown)"
  EC50: "1 to 100 nM"
- molecule: "CC(C)Oc1cc(C(=O)O)cc2sc(N3C4CCC3CC(NCc3c(-c5c(F)cccc5F)noc3C3CC3)C4)nc12 (stereo not shown)"
  EC50: "100 to 1000 nM"
- molecule: "CN(C)S(=O)(=O)NC(=O)c1ccc2nc(N3CCN(Cc4c(-c5c(Cl)cccc5Cl)noc4C4CC4)CC3)sc2c1"
  EC50: "1 to 100 nM"
- molecule: "O=C(O)c1cc(F)c2nc(N3C4CCC3CC(NCc3c(-c5ccccc5C(F)(F)F)noc3C3CC3)C4)sc2c1 (stereo not shown)"
  EC50: "1 to 100 nM"
- molecule: "CC(C)(C)c1ccc(S(=O)(=O)NC(=O)c2ccc3nc(N4C5CCC4CC(NCc4c(-c6c(Cl)cccc6Cl)noc4C4CC4)C5)sc3c2)cc1 (single isomer, unassigned) [Example 262]"
  EC50: "< 1 nM"
- molecule: "CCOc1cc(C(=O)OC)cc2sc(N3C4CCC3CC(NCc3c(-c5c(Cl)cccc5Cl)noc3C3CC3)C4)nc12 (stereo not shown)"
  EC50: "1 to 100 nM"
- molecule: "CN(C)S(=O)(=O)NC(=O)c1ccc2nc(N3C4CCC3CN(Cc3c(-c5c(Cl)cccc5Cl)noc3C3CC3)C4)sc2c1"
  EC50: "1 to 100 nM"
- molecule: "Cc1c(C(=O)O)ccc2nc(N3C4CCC3CC(NCc3c(-c5c(Cl)cccc5Cl)noc3C3CC3)C4)sc12 (stereo not shown)"
  EC50: "1 to 100 nM"
- molecule: "Cc1cc(C(=O)NS(=O)(=O)C2(C)CC2)cc2sc(N3C4CCC3CC(NCc3c(-c5ccccc5C(F)(F)F)noc3C3CC3)C4)nc12 (stereo not shown)"
  EC50: "< 1 nM"
- molecule: "COC(=O)c1cc2sc(N3C4CCC3CC(NCc3c(-c5c(Cl)cccc5Cl)noc3C3CC3)C4)nc2cc1-c1ccccc1 (stereo not shown)"
  EC50: "1 to 100 nM"
- molecule: "O=C(O)c1ccc2nc(N3C4CCC3CC(NCc3c(-c5ccccc5C(F)(F)F)noc3C3CC3)C4)sc2c1 (stereo not shown)"
  EC50: "1 to 100 nM"
- molecule: "CC(C)(C)c1ccc(S(=O)(=O)NC(=O)c2cccc(N3CCN(Cc4c(-c5c(Cl)cccc5Cl)noc4C4CC4)CC3)c2)cc1"
  EC50: "100 to 1000 nM"
- molecule: "Cc1cc2nc(N3C4CCC3CC(NCc3c(-c5c(Cl)cccc5Cl)noc3C3CC3)C4)sc2cc1C(=O)NS(=O)(=O)C1(C)CC1 (stereo not shown)"
  EC50: "< 1 nM"
- molecule: "O=C(NS(=O)(=O)C1CC1)c1cc(F)c(N2C3CCC2CC(NCc2c(-c4ccccc4OC(F)(F)F)noc2C2CC2)C3)c(F)c1 (stereo not shown)"
  EC50: "1 to 100 nM"
- molecule: "O=C(O)c1ccc2nc(N3C4CCC3CC(NCc3c(-c5ccccc5C(F)(F)F)noc3C3CC3)C4)oc2c1 (stereo not shown)"
  EC50: "1 to 100 nM"
- molecule: "COC(=O)c1cc(OC)c2nc(N3C4CCC3CC(NCc3c(-c5c(Cl)cccc5Cl)noc3C3CC3)C4)sc2c1 (stereo not shown)"
  EC50: "1 to 100 nM"
- molecule: "CC(C)(C)Oc1ccc(S(=O)(=O)NC(=O)OCc2ccc3nc(N4C5CCC4CC(NCc4c(-c6c(Cl)cccc6Cl)noc4C4CC4)C5)sc3c2)cc1 (stereo not shown)"
  EC50: "1 to 100 nM"
- molecule: "O=C(NS(=O)(=O)N1CCCCC1)c1cc(OC(F)F)c2nc(N3C4CCC3CC(NCc3c(-c5c(Cl)cccc5Cl)noc3C3CC3)C4)sc2c1 (stereo not shown)"
  EC50: "< 1 nM"
- molecule: "COC(=O)c1cc(OC(C)C)c2nc(N3C4CCC3CC(NCc3c(-c5ccccc5C(F)(F)F)noc3C3CC3)C4)sc2c1 (stereo not shown)"
  EC50: "1 to 100 nM"
- molecule: "CC1(S(=O)(=O)NC(=O)c2ccc3nc(N4C5CCC4CC(NCc4c(C6CCC7(CC6)CC7)noc4C4CC4)C5)sc3c2)CC1 (stereo not shown)"
  EC50: "1 to 100 nM"
- molecule: "O=C(NS(=O)(=O)N1CCCC1)c1cc(F)c2nc(N3C4CCC3CC(NCc3c(-c5c(Cl)cccc5Cl)noc3C3CC3)C4)sc2c1 (stereo not shown)"
  EC50: "1 to 100 nM"
